The measurements presented in this section are drawn from patent US10472395B2.

# Tested on: BT-474 human mammary gland ductal carcinoma cells
# METHOD_DESCRIPTION: Inhibitory response of test compounds against BT-474 cells (Cell Titer-Glo, 72 h)
# Type: cell-based
# RECORDED_CONDITIONS: Homo sapiens
pIC50: −log10 of the molar value.
The molecules listed here are annotated with their pIC50.

Below: 4 molecules and their reported pIC50.
Ask | Kindly state the measured pIC50 obtained for C/C=C(\C)[C@H]1OC(=O)[C@@H](C)NC(=O)[C@H](C(C)CC)NC(=O)CN(C)C(=O)[C@@H](Cc2ccccc2)N(C)C(=O)[C@H](C)NC(=O)[C@@H](CC(C)C)OC(=O)/C(C)=C/C=C/[C@@H]1C (some centres unmarked) [Compound 69] with BT-474 human mammary gland ductal carcinoma cells.
Reply | > 7.70

Ask | So what pIC50 did C/C=C(\C)[C@H]1OC(=O)[C@@H](C)NC(=O)[C@H]([C@H](C)CC)NC(=O)CN(C)C(=O)[C@@H](Cc2ccccc2)N(C)C(=O)[C@H](C)NC(=O)[C@@H](CC(C)C)OC(=O)/C(C)=C/C[C@H](OC(=O)N(C)CCN(C)C(=O)OCC[Si](C)(C)C)[C@@H]1C [Compound 117] get with BT-474 human mammary gland ductal carcinoma cells?
Reply | 6.70 to 7.70

Ask | Record C/C=C(\C)[C@H]1OC(=O)[C@@H](C)NC(=O)[C@H]([C@H](C)CC)NC(=O)CN(C)C(=O)[C@@H](Cc2ccccc2)N(C)C(=O)[C@H](C)NC(=O)[C@@H](CC(C)C)OC(=O)/C(C)=C/C[C@H](OC(=O)N(C)CCN(C)S(=O)(=O)c2ccc([N+](=O)[O-])cc2)[C@@H]1C [Compound 115] : what is its pIC50 with BT-474 human mammary gland ductal carcinoma cells?
Reply | > 7.70

Ask | Give BT-474 human mammary gland ductal carcinoma cells pIC50 for C/C=C(\C)[C@H]1OC(=O)[C@@H](C)NC(=O)[C@H](C(C)CC)NC(=O)CN(C)C(=O)[C@@H](Cc2ccc(O)cc2)N(C)C(=O)[C@H](C)NC(=O)[C@@H](CC(C)C)OC(=O)/C(C)=C/C=C/[C@@H]1C (some centres unmarked) [Compound 99]
Reply | 6.70 to 7.70

Read the next record carefully.
Ask | Lookup: pIC50 / BT-474 human mammary gland ductal carcinoma cells / C/C=C(\C)[C@H]1OC(=O)[C@@H](C)NC(=O)[C@H]([C@H](C)CC)NC(=O)CN(C)C(=O)[C@@H](Cc2ccccc2)N(C)C(=O)[C@H](CCCCNC(=O)OC(C)(C)C)NC(=O)[C@@H](CC(C)C)OC(=O)/C(C)=C/C[C@H](O)[C@@H]1C [Compound 96]
Reply | > 7.70

====

# System: BT-474 human mammary gland ductal carcinoma cells
# METHOD_DESCRIPTION: Inhibitory response of test compounds against BT-474 cells (Cell Titer-Glo, 72 h)
# Format: cell-based
# RECORDED_CONDITIONS: Homo sapiens
Numbered stars: 1 amine (or outer) side, 2 acyl side, 3 side chain; on linkers, the order of the positions; unused ones are H or OH. Bridge positions count the residues as written; N and C are the ends. Square brackets hold non-standard residues; d marks the D form. Peptide text beside a SMILES is read from it. ξ: configuration not given here. X1 = C/C(=C\CC[C@@H](C)CO[*:2])C(=O)[*:1]; dNMeF = CN[C@H](Cc1ccccc1)C(=O)O; Ile(3ξ) = CCC(C)[C@H](N)C(=O)O; dHica = CC(C)C[C@@H](O)C(=O)O; Sar = CNCC(=O)O
MEASUREMENT_KIND: IC50

Ask | Quick check: IC50 of CCC(C)[C@@H]1NC(=O)CN(C)C(=O)[C@@H](Cc2ccccc2)N(C)C(=O)[C@H](C)NC(=O)[C@@H](CC(C)C)OC(=O)/C(C)=C/CC[C@@H](C)COC(=O)[C@@H](C)NC1=O (stereo partly shown) [Compound 92] ([dHica]A[dNMeF][Sar][Ile(3ξ)][dA]; linker N-C via X1) ?
Reply | 200 to 10000 nM

Ask | Fill blank: measured IC50 of the compound C/C=C(\C)[C@H]1OC(=O)[C@@H](C)NC(=O)[C@H](C(C)CC)NC(=O)CN(C)C(=O)[C@@H](Cc2ccc(Cl)cc2)N(C)C(=O)[C@H](C)NC(=O)[C@@H](CC(C)C)OC(=O)/C(C)=C/C[C@H](O)[C@@H]1C (stereo partly shown) [Compound 21] is ____.
Reply | < 20 nM

Ask | Fill in the blank: the reported IC50 of C/C=C(\C)[C@H]1OC(=O)[C@@H](C)NC(=O)[C@H]([C@H](C)CC)NC(=O)CN(C)C(=O)[C@@H](Cc2ccccc2)N(C)C(=O)[C@H](C)NC(=O)[C@@H](CC(C)C)OC(=O)/C(C)=C/C[C@H](OC(=O)NCCCCCCNC(=O)CCOCCOCCOCCOCCNC(=O)c2ccc(C=O)cc2)[C@@H]1C [Compound 111] is ____.
Reply | > 10000 nM

Continuing:
Ask | Tell me the measured IC50 of C/C=C(\C)[C@H]1OC(=O)[C@@H](C)NC(=O)[C@H]([C@H](C)CC)NC(=O)CN(C)C(=O)[C@@H](Cc2ccc(F)cc2)N(C)C(=O)[C@H](C)NC(=O)[C@@H](CC(C)C)OC(=O)/C(C)=C/C[C@H](OCSC)[C@@H]1C [Compound 101] , please.
Reply | < 20 nM
